Data credit: paper PMC8843160

Recorded Jss, the steady-state flux, one value per entry.
Assay: In vitro skin permeation, Franz diffusion cells
Format: in vitro ADME, porcine
Conditions: porcine ear skin, donor saturated solution in isopropyl myristate, receptor PBS pH 7.4, 32 °C; slope of the linear portion of the plots
Experimental: According to the description in our previous report (Xu et al., [2011]), the porcine ears immediately obtained from the killed pig were supplied by local slaughterhouse (Xiangtan, China). The hair of porcine ears was carefully cut off with animal hair clippers. […] The samples were determined by an LC-20A HPLC system (SHIMADZU, Kyoto, Japan). […]
Give the value, in units of µg/cm^2⋅h^–1, as a plain number.

Please review the entries below; each comes with its answer.
CC(=O)Oc1cccc2c1C(=O)c1c(OC(C)=O)cc(C(=O)O)cc1C2=O.CCCCCCCCCCCCCCCCCCN [DCN-N18]	0.20
CC(=O)Oc1cccc2c1C(=O)c1c(OC(C)=O)cc(C(=O)O)cc1C2=O.OCCN(CCO)CCO [DCN-Teta]	0.17
CC(=O)Oc1cccc2c1C(=O)c1c(OC(C)=O)cc(C(=O)O)cc1C2=O [DCN, Diacerein, reference compound]	0.06
CC(=O)Oc1cccc2c1C(=O)c1c(OC(C)=O)cc(C(=O)O)cc1C2=O.CCCCCCCCCCCCCCN [DCN-N14]	0.24
CC(=O)Oc1cccc2c1C(=O)c1c(OC(C)=O)cc(C(=O)O)cc1C2=O.OCCNCCO [DCN-Deta]	0.11
CC(=O)Oc1cccc2c1C(=O)c1c(OC(C)=O)cc(C(=O)O)cc1C2=O.CCN [DCN-ea]	0.08

Problem: Input CC(=O)Oc1cccc2c1C(=O)c1c(OC(C)=O)cc(C(=O)O)cc1C2=O.CCNCC [DCN-Dea] , output reported Jss, the steady-state flux.
Result: 0.10

Problem: Input CC(=O)Oc1cccc2c1C(=O)c1c(OC(C)=O)cc(C(=O)O)cc1C2=O.NCCO [DCN-eta] , output reported Jss, the steady-state flux.
Result: 0.09

Problem: Input CC(=O)Oc1cccc2c1C(=O)c1c(OC(C)=O)cc(C(=O)O)cc1C2=O.CCCCCCCCN [DCN-N8] , output reported Jss, the steady-state flux.
Result: 0.14

* * *

assay: Equilibrium solubility experiments; type: physicochemical; conditions: water, 32 °C, read-out: Equilibrium solubility Water
VALUE TYPE: solubility thermodynamic at 48 h

Problem: Input CC(=O)Oc1cccc2c1C(=O)c1c(OC(C)=O)cc(C(=O)O)cc1C2=O [DCN, Diacerein, reference compound] , output reported solubility thermodynamic at 48 h.
Result: ≤ 10 µg/mL

* * *

Recorded Tlag, one value per entry.
experiment: In vitro skin permeation, Franz diffusion cells; format: in vitro ADME, porcine; settings: porcine ear skin, donor saturated solution in isopropyl myristate, receptor PBS pH 7.4, 32 °C; linear portion of permeation curve extrapolated to the abscissa
// return the numeric value with its unit appended

Please review the entries below; each comes with its answer.
CC(=O)Oc1cccc2c1C(=O)c1c(OC(C)=O)cc(C(=O)O)cc1C2=O.CCCCCCN [DCN-N6]	1.52 ± 0.36 h
CC(=O)Oc1cccc2c1C(=O)c1c(OC(C)=O)cc(C(=O)O)cc1C2=O.CCCCCCCCCCCCCCCCCCN [DCN-N18]	1.42 ± 0.52 h
CC(=O)Oc1cccc2c1C(=O)c1c(OC(C)=O)cc(C(=O)O)cc1C2=O.OCCNCCO [DCN-Deta]	2.16 ± 0.55 h
CC(=O)Oc1cccc2c1C(=O)c1c(OC(C)=O)cc(C(=O)O)cc1C2=O.NCCO [DCN-eta]	1.41 ± 0.56 h
CC(=O)Oc1cccc2c1C(=O)c1c(OC(C)=O)cc(C(=O)O)cc1C2=O.OCCN(CCO)CCO [DCN-Teta]	1.52 ± 0.48 h

# next molecule below
Problem: Input CC(=O)Oc1cccc2c1C(=O)c1c(OC(C)=O)cc(C(=O)O)cc1C2=O.CCCCCCCCCCCCCCN [DCN-N14] , output reported Tlag.
Result: 1.31 ± 0.11 h
